- particulars: human
Counter-ions that a name gives are not always drawn.
assay-readout: Outcome

Answer with the recorded Outcome of CCCC(CCC)C(=O)O [valproic acid] only.
16.41

Report Outcome for CCCC(C)(COC(N)=O)COC(=O)NC(C)C (centres unmarked)
26.05

Identify Outcome associated with the molecule CN[C@@H](C)Cc1ccccc1 [methamphetamine hydrochloride]
20.20

Please give measured Outcome of the following entry: CCCC(CCC)C(=O)O [divalproex sodium]
11.14

###

Reported Outcome values follow for various molecules
- particulars: human
Format: numeric value only, no unit, no commentary.

The examples below pair each entry with its known result.
CCC1(c2ccccc2)C(=O)NCNC1=O [primidone]	10.86
NC(=O)OCC(COC(N)=O)c1ccccc1 [felbamate]	14.26
Cc1nnc2n1-c1ccc(Cl)cc1C(c1ccccc1)=NC2 [alprazolam]	21.02
CN1C(=O)C(O)N=C(c2ccccc2)c2cc(Cl)ccc21 (stereo not shown) [temazepam]	22.08
O=P(O)(O)C(O)(Cn1ccnc1)P(=O)(O)O [zoledronic acid (Reclast), zoledronic acid]	16.89

// Input: CC(C)C[C@H](NC(=O)[C@H](CCc1ccccc1)NC(=O)CN1CCOCC1)C(=O)N[C@@H](Cc1ccccc1)C(=O)N[C@@H](CC(C)C)C(=O)[C@@]1(C)CO1 [carfilzomib] . Output its Outcome only.
22.81

State its Outcome for this molecule: CCCC(CCC)C(=O)[O-].[Na+] [valproate sodium]
13.09
